# System: Avena sativa
# ASSAY EXPLANATION: Foliage treatment test (Test Example 1), foliage spray
# Type: in vivo
# ASSAY CONDITIONS: 250 g per hectare, three weeks after, fresh grass mass of aerial part vs untreated
MEASURED ATTRIBUTE: Herbicidal ratio against Avena sativa (%)
One number for each entry, in %.

Before answering, review these 6 worked examples.
## Input Item COC(=O)OC(C)Oc1c(-c2ccc(S(C)(=O)=O)c(C3=NOCC3)c2Cl)cnn(C)c1=O (stereo not shown) [Compound A-7] : provide Herbicidal ratio against Avena sativa
## Output 100

## Input Item COC(=O)OC(C)Oc1c(-c2ccc(C(F)(F)F)c(NC(=O)C3CC3)c2C)cnn(C)c1=O (stereo not shown) [Compound A-9] : provide Herbicidal ratio against Avena sativa
## Output 100

## Input Item COC(=O)OCOc1c(-c2ccc(C(F)(F)F)cc2S(C)(=O)=O)cnn(C)c1=O [Compound A-3] : provide Herbicidal ratio against Avena sativa
## Output 100

## Input Item CC(C)C(=O)OCOc1c(-c2ccc(C(F)(F)F)cc2S(C)(=O)=O)cnn(C)c1=O [Compound A-5] : provide Herbicidal ratio against Avena sativa
## Output 100

## Input Item COC(=O)OC(C)Oc1c(-c2ccc(C(F)(F)F)cc2S(C)(=O)=O)cnn(C)c1=O (stereo not shown) [Compound A-4] : provide Herbicidal ratio against Avena sativa
## Output 100

## Input Item COC(=O)OC(C)Oc1c(-c2ccc(S(C)(=O)=O)cc2Cl)cnn(C)c1=O (stereo not shown) [Compound A-2] : provide Herbicidal ratio against Avena sativa
## Output 100

Now examine the next entry.
## Input Item CC(OC(=O)C(C)C)Oc1c(-c2ccc(C(F)(F)F)cc2S(C)(=O)=O)cnn(C)c1=O (stereo not shown) [Compound A-1] : provide Herbicidal ratio against Avena sativa
## Output 100
